Kindly state log10 CC50 at 2 days for each of the entries shown.
- experiment_description: Cytotoxicity assay in Vero E6 cells (neutral red uptake)
- Format: cell-based
- settings: African green monkey; Vero E6 cells, 2 days at 37° C., neutral red uptake; read-out: Vero CC50
Scale: decimal log of CC50 at 2 days, CC50 at 2 days in µM.

Given the molecule COc1cc(-c2cc([C@@H](C)NC(=O)c3cc(OCCN(C)C)ccc3C)c3ccccc3n2)cs1 , write its reported log10 CC50 at 2 days. 1.14

Name the recorded log10 CC50 at 2 days of the item Cc1ccc(OCCN(C)C)cc1C(=O)N[C@H](C)c1cc(-c2cnn(C(C)C)c2)nc2ccccc12 in your answer. 1.58

For the molecule Cc1ccc(OCCN(C)C)cc1C(=O)N[C@H](C)c1cc(-c2ccco2)nc2ccccc12 , give its reported log10 CC50 at 2 days. 1.76

Look up and report measured log10 CC50 at 2 days for this entry: Cc1ccc(N2CC(N(C)C)C2)cc1C(=O)N[C@H](C)c1cc(-c2cnn(C)c2)nc2ccccc12 2.49

Kindly indicate its recorded log10 CC50 at 2 days. Item: Cc1ccc(OCCN(C)C)cc1C(=O)N[C@H](C)c1cc(Cl)nc2ccccc12 2.00

Return log10 CC50 at 2 days for the following molecule: CCn1ccc(-c2cc([C@@H](C)NC(=O)c3cc(OC[C@H]4CCCN4C)ccc3C)c3ccccc3n2)n1 1.67

Give the value of log10 CC50 at 2 days reported for the following: Cc1ccc(N2CC[C@@H](N(C)C)C2)cc1C(=O)N[C@H](C)c1cc(-c2cnn(C)c2)nc2ccccc12 1.46

Report measured log10 CC50 at 2 days; entry is Cc1ccc(N2CCN(C)CC2)cc1C(=O)N[C@H](C)c1cc(-c2ccco2)nc2ccccc12 1.29

Check the records and state log10 CC50 at 2 days for Cc1ccc(OCCN(C)C)cc1C(=O)N[C@H](C)c1cc(-c2cnn(CCC#N)c2)nc2ccccc12 2.00

Quick one: give measured log10 CC50 at 2 days for Cc1ccc(OCCN(C)C)cc1C(=O)N[C@H](C)c1cc(-c2ccc(CN3CCOCC3)s2)nc2ccccc12 1.49

Look up log10 CC50 at 2 days of Cc1ccc(OCCN(C)C)cc1C(=O)N[C@H](C)c1cc(-c2ccc3cn[nH]c3c2)nc2ccccc12 and report it. 1.41

Let me know recorded log10 CC50 at 2 days for Cc1ccc(N(C)CC2CN(C)C2)cc1C(=O)N[C@H](C)c1cc(-c2cnn(C)c2)nc2ccccc12 , thanks. 1.95

Quote log10 CC50 at 2 days reported for Cc1ccc(OCCN(C)C)cc1C(=O)N[C@H](C)c1cc(-c2cnn(C(F)F)c2)nc2ccccc12 please. 1.18

Look up log10 CC50 at 2 days of Cc1ccc(OCCN(C)C)cc1C(=O)N[C@H](C)c1cc(-c2cnn(C3CC3)c2)nc2ccccc12 and report it. 1.80
